System: A549
experiment.summary: MTT cell proliferation test, cytotoxicity on A549 lung cancer cells
Type: cell-based
test.settings: A549, 72 hrs incubation, read-out: IC50 μmole/L, after 72 hrs incubation time
Listing: pIC50 of selected molecules
# pIC50 = -log10(concentration in molar units)

In the examples that follow, each entry is paired with its recorded pIC50.
molecule	target.of.assay	pIC50
CCc1c2c(nc3ccc(O)c(CN4CCC4)c13)-c1cc3c(c(=O)n1[C@@H]2CO)COC(=O)[C@]3(O)CC	A549	5.93
C=c1c2c(CC)c3cc(O)ccc3nc2c2cc3c(c(=O)n12)COC(=O)C3(O)CC (stereo not drawn)	A549	5.71

Next, consider the following molecule.
q: # value lookup — system A549, readout pIC50, item CCc1c2c(nc3ccc(O)c(CN4CCC4)c13)-c1cc3c(c(=O)n1C2)COC(=O)C3(O)CC (stereo not drawn) [CC1, reference compound]
a: 7.15
